Reported values of cytotoxicity at 70.5 h for individual entries
- assay_overview: Human HepG2 cell viability assay in 384 well format
- Type: toxicity, cell-based
- Design: dose 125 nL, time 70.5 hour; concentration not given beside the values
- setup_conditions: HepG2 cells, read-out: Inhibition
endpoint: cytotoxicity at 70.5 h (%)

# molecule, units_symbol, assay_result
rows = [
    ("CCn1c(C2CCCNC2)nn(CCn2cncn2)c1=O (stereo not drawn)", "%", -8.3),
    ("CCc1nc2n(n1)CC(NCc1cnc(N(CC)CC)s1)CC2 (stereo not drawn)", "%", -18.7),
    ("O=C(CN1CCc2sccc2C1)Nc1ccnc2ccnn12", "%", 74.2),
    ("Cc1cc(N2CCOC(c3ccc(C(N)=O)cn3)C2)ncn1 (stereo not drawn)", "%", 19.9),
    ("CC(C)NC(=O)CN(C)CC(=O)/N=c1/cc[nH]n1C(C)C1CC1 (stereo not drawn)", "%", 34.2),
    ("Cn1ncc2c(=O)[nH]c(N3CCN(C(=O)c4ccsc4)CC3)nc21", "%", 14.1),
    ("COCCN(Cc1cnn(C)c1)C(=O)C1CCN(C2CCCCC2)CC1", "%", -10.8),
    ("Cc1cc(=O)n(CCNC(=O)c2ccccc2Cl)cn1", "%", 4.36),
    ("COc1nn(C)c2c1CCCN(C(=O)c1cccc(C)n1)C2", "%", -2.8),
    ("C=C(C)COCCNC(=O)C1CCCN1C(C)=O (stereo not drawn)", "%", -13.6),
    ("CCNC(=O)Nc1cccc(F)c1C(=O)NC1CCCC1", "%", -6.92),
    ("COc1ccccc1CNC(Cn1cncn1)c1ccccc1 (stereo not drawn)", "%", -2.53),
    ("COCCN1CCCN(C(=O)c2scnc2C)CC1", "%", -3.53),
]

----------
- assay_overview: Human HepG2 cell viability assay in 384 well format
- Format: toxicity, cell-based
- Set-up: dose 125 nL, time 70.5 hour; concentration not given beside the values
- setup_conditions: HepG2 cells, read-out: Inhibition
endpoint: cytotoxicity at 70.5 h (%)

# compound, assay_result
records = [
    ("CCC(C(=O)N1CCCSCC1)N1CCCC1=O (stereo not drawn)", 12.1),
    ("CC(C)(C)OC(=O)N1CCCc2ccc(NCc3ccon3)cc21", -4.98),
    ("Cc1nccn1-c1ccc(CNC(=O)c2ccc(O)nc2)cn1", -9.46),
    ("CN1CCC(CNC(=O)c2ccc3cccc(Cl)c3n2)C1 (stereo not drawn)", -6.3),
    ("COc1ccc(C)cc1Nc1nc2c(C)nn(C)c2c(=O)n1C", -5.48),
    ("O=C(O)c1c(-c2ccoc2)ncc2c1CCN(C1CCOC1)C2 (stereo not drawn)", -2.3),
    ("NS(=O)(=O)CCNC(=O)c1ccc(OCc2ccccc2)nc1", 20.5),
    ("COC(C)(CNS(=O)(=O)c1cn(C)cn1)c1ccccc1F (stereo not drawn)", 9.94),
    ("O=C(COc1ccc2cccnc2c1)N1CCN[C@H]2CS(=O)(=O)C[C@H]21", 18.5),
    ("CC(C)c1nc(NS(=O)(=O)c2ccccc2Cl)no1", 0.444),
    ("O=C(NCc1nccn1CCc1ccccc1)NCC1CCC1", 2.35),
    ("Cc1nc(C)c(S(=O)(=O)NC(=O)c2ccoc2)s1", -13),
    ("COCCc1noc(CN(C)c2cc(C)ncn2)n1", 17.1),
]
